- Test system: Human venous whole blood
- test-protocol: Human whole blood IFN-γ assay;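 note: blood from healthy donors exposed to compound for 1 h before stimulation with anti-CD3 and anti-CD28 at 1 µg/mL each, IFN-γ quantified in supernatant by AlphaLISA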
- Assay type: cell-based
- condition-description: Homo sapiens, 24 h, human whole blood, anti-CD3 plus anti-CD28, 24 hours; 3 μM reference compound = 100% activation; read-out: INFg Whole Blood Normalized Agonist EC50
pEC50: −log10 of the molar value.
measured-metric: pEC50

{"columns": ["molecule", "recorded-number"],
 "data": [
  ["CC1CN(C(c2ccc(F)cc2)c2nc(C(C)(C)C)no2)C(C)CN1c1c(C#N)c(=O)n(C)c2ccc(C#N)nc12 (single isomer, unassigned) [Example 862]", 5.92],
  ["C[C@@H]1CN(c2c(C#N)c(=O)n(C)c3ccc(C#N)nc23)CCN1C(c1ccc(F)cc1)c1ccc(F)cc1F (stereo partly drawn) [Example 946]", 6.17],
  ["C[C@@H]1CN(c2c(C#N)c(=O)n(C)c3ccc(C#N)nc23)CCN1C(c1cccc(Cl)c1)c1ccc(F)cn1 (stereo partly drawn) [Example 926]", 5.92]
]}
